System: PAE 105250
testMethodNotes: MIC, broth microdilution (CLSI), substance alone or ATB combined with compound at 4 or 8 μg/mL
Type: cell-based, P. aeruginosa
runConditions: MIC of CPO; compound @8 μg/ml; PAE 105250
MIC ATB combined with Example compound values, listed per item
Field: numeric (µg/mL). Do not append units.

The examples below pair each entry with its known result.
O=C1N2CC(n3ccnn3)=CC(C2)N1OS(=O)(=O)[O-].[Na+] (stereo not drawn) :: 8
O=C1N2CC(n3cccn3)=CC(C2)N1OS(=O)(=O)[O-].[Na+] (stereo not drawn) :: 16
O=C1N2CC(n3cccn3)=CC(C2)N1OC(F)(F)C(=O)[O-].[Li+] (stereo not drawn) :: 16

Incoming: // MIC ATB combined with Example compound lookup, key: O=C1N2CC(c3ncco3)=CC(C2)N1OC(F)(F)C(=O)O (stereo not drawn)
Outgoing: 16

Incoming: // MIC ATB combined with Example compound lookup, key: O=C1N2CC(n3cncn3)=CC(C2)N1OS(=O)(=O)[O-].[Na+] (stereo not drawn)
Outgoing: 8

---

MIC ATB combined with Example values, listed per item
System: SPN 49619
testMethodNotes: MIC, broth microdilution (CLSI), substance alone or ATB combined with compound at 4 or 8 μg/mL
Format: cell-based, S. pneumoniae
runConditions: ATB PIP; SPN 49619; Example @8 μg/ml
Field: numeric (µg/mL). Do not append units.

O=C1N2CC(n3cccn3)=CC(C2)N1OC(F)(F)C(=O)[O-].[Li+] (centres unmarked) [Example 13] :: 0.5
O=C1N2CC(n3cncn3)=CC(C2)N1OS(=O)(=O)[O-].[Na+] (centres unmarked) [Example 14] :: 0.063
O=C1N2CC(n3ccnn3)=CC(C2)N1OS(=O)(=O)[O-].[Na+] (centres unmarked) [Example 12] :: 0.25

Incoming: Provide value of MIC ATB combined with Example for this record tested with SPN 49619: O=C1N2CC(n3cccn3)=CC(C2)N1OS(=O)(=O)[O-].[Na+] (centres unmarked) [Example 11]
Outgoing: 0.5

---

MIC values, listed per item
Tested on: PAE UFR90
testMethodNotes: MIC, broth microdilution (CLSI), substance alone or ATB combined with compound at 4 or 8 μg/mL
Type: cell-based, P. aeruginosa
runConditions: Pseudomonas aeruginosa, PAE UFR90; antibiotic alone; read-out: MIC ATB alone

The examples below pair each entry with its known result.
CO/N=C(\C(=O)N[C@@H]1C(=O)N2C(C(=O)O)=C(COC(N)=O)CS[C@H]12)c1ccco1 [FUR, Cefuroxime, reference compound] :: > 32 µg/mL
CC1(C)S[C@@H]2[C@H](NC(=O)[C@H](N)c3ccc(O)cc3)C(=O)N2[C@H]1C(=O)O [AMX, Amoxicillin, reference compound] :: > 32 µg/mL
C=CC1=C(C(=O)O)N2C(=O)[C@@H](NC(=O)/C(=N\OCC(=O)O)c3csc(N)n3)[C@H]2SC1 [FIX, Cefixime, reference compound] :: > 32 µg/mL

# context switch: different molecule, same MIC
Incoming: // MIC lookup, key: NCC[C@H](O)C(=O)N[C@@H]1C[C@H](N)[C@@H](O[C@H]2O[C@H](CN)[C@@H](O)[C@H](O)[C@H]2O)[C@H](O)[C@H]1O[C@H]1O[C@H](CO)[C@@H](O)[C@H](N)[C@H]1O [AN, Amikacin, reference compound]
Outgoing: 2 µg/mL
